Attribution: ChEMBL document CHEMBL1275589

# Test system: Klebsiella pneumoniae
# assay.procedure: Antimicrobial activity against carbapenem-resistant KPC-2 producing Klebsiella pneumoniae 531 ST 376 expressing beta-lactamase SHV-1 by agar dilution method
# Format: functional
Parameter: MIC. Scope: all listed entries.
parameter.measured: MIC (µg/mL)

# compound, unit.of.measure, relation.operator, numeric.value
measured = [
    ("C[C@H]1COc2c(N3CCN(C)CC3)c(F)cc3c(=O)c(C(=O)O)cn1c23.C[C@H]1COc2c(N3CCN(C)CC3)c(F)cc3c(=O)c(C(=O)O)cn1c23.O", "µg/mL", ">", 8),
    ("C[C@@H](O)[C@H]1C(=O)N2C(C(=O)O)=C(S[C@@H]3CN[C@H](C(=O)N(C)C)C3)[C@H](C)[C@H]12", "µg/mL", "=", 64),
    ("CO/N=C(\\C(=O)N[C@@H]1C(=O)N2C(C(=O)O)=C(CSc3nc(=O)c(O)nn3C)CS[C@H]12)c1csc(N)n1", "µg/mL", ">", 64),
    ("C[C@H]1[C@H](NC(=O)/C(=N\\OC(C)(C)C(=O)O)c2csc(N)n2)C(=O)N1S(=O)(=O)O", "µg/mL", ">", 64),
    ("C[C@@H](O)[C@H]1C(=O)N2C(C(=O)O)=C(SCCNC=N)C[C@H]12 [IMIPENEM ANHYDROUS]", "µg/mL", "=", 32),
    ("CC(C)(O/N=C(\\C(=O)N[C@@H]1C(=O)N2C(C(=O)[O-])=C(C[n+]3ccccc3)CS[C@H]12)c1csc(N)n1)C(=O)O", "µg/mL", ">", 64),
    ("NCC[C@H](O)C(=O)N[C@@H]1C[C@H](N)[C@@H](O[C@H]2O[C@H](CN)[C@@H](O)[C@H](O)[C@H]2O)[C@H](O)[C@H]1O[C@H]1O[C@H](CO)[C@@H](O)[C@H](N)[C@H]1O", "µg/mL", "=", 8),
    ("C[C@@H](O)[C@H]1C(=O)N2C(C(=O)O)=C(S[C@@H]3CN[C@H](C(=O)Nc4cccc(C(=O)O)c4)C3)[C@H](C)[C@H]12", "µg/mL", "=", 128),
]

====

Parameter: MIC. Scope: all listed entries.
# System: Klebsiella pneumoniae
# assay.procedure: Antimicrobial activity against carbapenem-resistant KPC-2 producing Klebsiella pneumoniae 469 ST 277 expressing beta-lactamase SHV-27, CTX-M-15 and OXA-4 by agar dilution method
# Assay type: functional
parameter.measured: MIC

# smiles.code, test.system, result
rows = [
    ("NCC[C@H](O)C(=O)N[C@@H]1C[C@H](N)[C@@H](O[C@H]2O[C@H](CN)[C@@H](O)[C@H](O)[C@H]2O)[C@H](O)[C@H]1O[C@H]1O[C@H](CO)[C@@H](O)[C@H](N)[C@H]1O", "Klebsiella pneumoniae", "4 µg/mL"),
    ("C[C@H]1[C@H](NC(=O)/C(=N\\OC(C)(C)C(=O)O)c2csc(N)n2)C(=O)N1S(=O)(=O)O", "Klebsiella pneumoniae", "> 64 µg/mL"),
    ("C[C@H]1COc2c(N3CCN(C)CC3)c(F)cc3c(=O)c(C(=O)O)cn1c23.C[C@H]1COc2c(N3CCN(C)CC3)c(F)cc3c(=O)c(C(=O)O)cn1c23.O", "Klebsiella pneumoniae", "< 0.25 µg/mL"),
]
